# test-settings: in n-propanol, 288.15 K
outcome-measure: solubility (mole fraction)
Provide a numeric answer; units are not to be included.

// lookup solubility (mole fraction) for Nc1nc(N)nc(NC2CC2)n1 0.000927

---

# test-settings: in acetone, 283.15 K
outcome-measure: solubility (mole fraction)

// lookup solubility (mole fraction) for Nc1nc(N)nc(NC2CC2)n1 0.000486

---

# test-settings: in ethanol, 318.15 K
outcome-measure: solubility (mole fraction)
Provide a numeric answer; units are not to be included.

// lookup solubility (mole fraction) for Nc1nc(N)nc(NC2CC2)n1 0.00299

---

# test-settings: in n-propanol, 323.15 K
outcome-measure: solubility (mole fraction)
Provide a numeric answer; units are not to be included.

// lookup solubility (mole fraction) for Nc1nc(N)nc(NC2CC2)n1 0.00327

---

# test-settings: in n-butanol, 293.15 K
outcome-measure: solubility (mole fraction)
Provide a numeric answer; units are not to be included.

// lookup solubility (mole fraction) for Nc1nc(N)nc(NC2CC2)n1 0.00104

---

# test-settings: in water, 318.15 K
outcome-measure: solubility (mole fraction)

// lookup solubility (mole fraction) for Nc1nc(N)nc(NC2CC2)n1 0.00254

---

# test-settings: in acetone, 298.15 K
outcome-measure: solubility (mole fraction)

// lookup solubility (mole fraction) for Nc1nc(N)nc(NC2CC2)n1 0.00071

---

# test-settings: in n-propanol, 308.15 K
outcome-measure: solubility (mole fraction)

// lookup solubility (mole fraction) for Nc1nc(N)nc(NC2CC2)n1 0.00191

---

# test-settings: in ethanol, 288.15 K
outcome-measure: solubility (mole fraction)
Provide a numeric answer; units are not to be included.

// lookup solubility (mole fraction) for Nc1nc(N)nc(NC2CC2)n1 0.00107

---

# test-settings: in methanol, 303.15 K
outcome-measure: solubility (mole fraction)
Provide a numeric answer; units are not to be included.

// lookup solubility (mole fraction) for Nc1nc(N)nc(NC2CC2)n1 0.0031

---

# test-settings: in propionic acid, 278.15 K
outcome-measure: solubility (mole fraction)
Provide a numeric answer; units are not to be included.

// lookup solubility (mole fraction) for Nc1nc(N)nc(NC2CC2)n1 0.00472

---

# test-settings: in n-hexanol, 313.15 K
outcome-measure: solubility (mole fraction)

// lookup solubility (mole fraction) for Nc1nc(N)nc(NC2CC2)n1 0.00185

---

# test-settings: in methanol, 313.15 K
outcome-measure: solubility (mole fraction)

// lookup solubility (mole fraction) for Nc1nc(N)nc(NC2CC2)n1 0.00378

---

# test-settings: in n-heptanol, 323.15 K
outcome-measure: solubility (mole fraction)
Provide a numeric answer; units are not to be included.

// lookup solubility (mole fraction) for Nc1nc(N)nc(NC2CC2)n1 0.00213

---

# test-settings: in ethanol, 323.15 K
outcome-measure: solubility (mole fraction)
Provide a numeric answer; units are not to be included.

// lookup solubility (mole fraction) for Nc1nc(N)nc(NC2CC2)n1 0.00355

---

# test-settings: in sec-butanol, 303.15 K
outcome-measure: solubility (mole fraction)
Provide a numeric answer; units are not to be included.

// lookup solubility (mole fraction) for Nc1nc(N)nc(NC2CC2)n1 0.000686

---

# test-settings: in isopropanol, 298.15 K
outcome-measure: solubility (mole fraction)
Provide a numeric answer; units are not to be included.

// lookup solubility (mole fraction) for Nc1nc(N)nc(NC2CC2)n1 0.000751
